# test target: CXCR4 (Homo sapiens, UniProt P61073)
# Construct: all endogenously expressing CXCR4; endogenous in cells; IL-2 stimulated human lymphocytes
# Sequence (P61073 whole entry): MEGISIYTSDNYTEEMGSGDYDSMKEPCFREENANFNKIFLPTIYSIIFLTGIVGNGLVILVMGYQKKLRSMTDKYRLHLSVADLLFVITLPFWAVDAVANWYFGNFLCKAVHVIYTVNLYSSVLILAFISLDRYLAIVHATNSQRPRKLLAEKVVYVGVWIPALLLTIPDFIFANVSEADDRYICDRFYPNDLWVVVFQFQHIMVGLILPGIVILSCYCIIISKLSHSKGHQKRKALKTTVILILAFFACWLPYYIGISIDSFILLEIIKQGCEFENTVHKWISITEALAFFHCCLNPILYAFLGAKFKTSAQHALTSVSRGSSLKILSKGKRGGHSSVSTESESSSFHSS
# measurement description: chemotaxis assay or 125I SDF-1α binding assay for CXCR4
# measurement conditions: first or only activity listed, read-out: CXCR4 activity (IC50 class)
pIC50: −log10 of the molar value.
reported property: pIC50

Please give the measured pIC50 for this molecule: Cc1ccc2c(c1)ncn2CC(=O)NCCN(C)C1CCCCC1
> 6.00

Which pIC50 is listed for Cc1cc(C)cc(-c2ccc3ccn(CC(=O)NCCN(C)C4CCCCC4)c3c2)c1 ?
> 6.00

# input molecule: CN(CCNC(=O)Cn1ccc2ccc(-c3ccc4c(ccn4C)c3)cc21)C1CCCCC1 ; wanted: its pIC50
> 6.00

Name the reported pIC50 value associated with the molecule Cc1ccc(-c2ccc3ccn(CC(=O)NCCN4CCCCC4)c3c2)cc1
> 6.00

Data request, read-out pIC50, for Cc1ccc(-c2ccc3cc(C(=O)O)n(CC(=O)NCCN(C)C4CCCCC4)c3c2)cc1
> 6.00

Can you share its pIC50? I mean this molecule: Cc1cccc(-c2ccc3ccn(CC(=O)NCCN(C)C4CCCCC4)c3c2)c1
> 6.00

Which value of pIC50 has been reported for Cc1ccc(-c2ccc3ccn(CC(=O)NCCN4CCCCCC4)c3c2)cc1 in the records?
> 6.00

Reported pIC50, molecule CN(CCNC(=O)Cn1cc2ccccc2n1)C1CCCCC1 : ____
5.00 to 6.00

Quick one: pIC50 of Cc1cc(-c2ccc3ccn(CC(=O)NCCN(C)C4CCCCC4)c3c2)ccc1F ?
> 6.00

Quick check: pIC50 of CN(CCNC(=O)Cn1ccc2ccc(-c3ccc(C#N)cc3)cc21)C1CCCCC1 ?
> 6.00

pIC50 lookup needed for Cc1ccc(-c2ccc3ccn(CC(=O)NCCN4CCCC(C)(C)C4)c3c2)cc1 , thanks.
> 6.00

Any idea what pIC50 was measured for Cc1ccc(-c2ccc3ccn(CC(=O)NCCNC4CCOC4)c3c2)cc1 (stereo not shown) ?
5.00 to 6.00

Given the molecule CN(CCNC(=O)Cn1ccc2ccc(-c3ccc(C(F)(F)F)cc3)cc21)C1CCCCC1 , what is its reported pIC50?
> 6.00

Please look up its pIC50: Cc1ccc(-c2ccc3ccn(CC(=O)NCCN4CCCC4)c3c2)cc1
> 6.00

Would you mind telling me what pIC50 value was observed for CC(C)c1ccc(-c2ccc3ccn(CC(=O)NCCN4CCCC5CCCCC54)c3c2)cc1 (stereo not shown) ?
> 6.00
